The values you see were collected from patent US20240084003A1.

Target: T1, murine CD22 protein (ACROBiosystems, SI2-M52Ha) (murine, UniProt P35329 22-708)
T1 construct: extracellular domain; also called murine CD22-ECD; murine CD22-ECD-His
T1 sequence (looked up): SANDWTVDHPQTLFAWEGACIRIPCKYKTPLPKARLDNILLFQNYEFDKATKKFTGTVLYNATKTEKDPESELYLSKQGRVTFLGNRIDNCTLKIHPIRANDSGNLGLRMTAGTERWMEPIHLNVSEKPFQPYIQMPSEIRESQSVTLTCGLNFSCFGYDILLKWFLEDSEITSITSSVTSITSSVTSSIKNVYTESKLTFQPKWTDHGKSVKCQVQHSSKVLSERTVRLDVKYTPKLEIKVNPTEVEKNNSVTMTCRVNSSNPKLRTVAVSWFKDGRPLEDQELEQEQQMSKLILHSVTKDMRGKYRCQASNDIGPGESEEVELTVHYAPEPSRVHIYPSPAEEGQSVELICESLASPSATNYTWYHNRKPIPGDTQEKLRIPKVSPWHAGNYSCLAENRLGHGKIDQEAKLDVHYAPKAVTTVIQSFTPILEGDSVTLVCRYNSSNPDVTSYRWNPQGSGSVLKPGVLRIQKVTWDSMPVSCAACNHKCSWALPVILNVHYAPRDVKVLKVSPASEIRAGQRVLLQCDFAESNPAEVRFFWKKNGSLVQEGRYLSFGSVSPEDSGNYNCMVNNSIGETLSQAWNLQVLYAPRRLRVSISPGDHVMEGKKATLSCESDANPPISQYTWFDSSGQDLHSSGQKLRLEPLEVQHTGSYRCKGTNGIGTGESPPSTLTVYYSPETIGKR
Assay: ELISA, coated murine CD22, 0.1 nM Ab
parameter_measured: OD450 (OD450)

- binder: "HA22-hIgG1 (antibody, V domains shown) VH: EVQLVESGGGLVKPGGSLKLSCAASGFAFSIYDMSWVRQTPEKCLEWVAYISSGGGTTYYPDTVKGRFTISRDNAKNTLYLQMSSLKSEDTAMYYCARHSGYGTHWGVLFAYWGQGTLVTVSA VL: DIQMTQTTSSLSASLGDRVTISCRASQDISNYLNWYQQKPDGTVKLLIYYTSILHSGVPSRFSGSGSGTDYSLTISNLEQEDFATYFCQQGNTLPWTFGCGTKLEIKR"
  parameter_measured: "OD450"
  reported_result: 0.06
- binder: "F1.17.1 human-murine chimeric antibody (antibody, human IgG1, kappa, V domains shown, Chimeric, human IgG1 / kappa) VH: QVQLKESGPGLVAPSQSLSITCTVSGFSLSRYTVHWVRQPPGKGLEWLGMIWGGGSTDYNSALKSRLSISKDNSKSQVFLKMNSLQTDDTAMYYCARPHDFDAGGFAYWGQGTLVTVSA VL: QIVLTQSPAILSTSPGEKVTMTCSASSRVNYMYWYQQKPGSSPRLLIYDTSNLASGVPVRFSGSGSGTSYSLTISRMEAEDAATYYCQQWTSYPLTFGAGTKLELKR"
  parameter_measured: "OD450"
  reported_result: 0.05
- binder: "F2.104.10 human-murine chimeric antibody (antibody, human IgG1, lambda, V domains shown, Chimeric, human IgG1 / lambda) VH: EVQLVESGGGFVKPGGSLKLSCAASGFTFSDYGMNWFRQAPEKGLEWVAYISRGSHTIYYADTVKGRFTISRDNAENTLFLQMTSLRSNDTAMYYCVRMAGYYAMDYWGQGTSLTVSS VL: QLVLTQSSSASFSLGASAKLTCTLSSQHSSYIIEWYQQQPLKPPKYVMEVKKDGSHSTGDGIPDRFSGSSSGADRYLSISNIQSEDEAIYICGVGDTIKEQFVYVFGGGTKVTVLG"
  parameter_measured: "OD450"
  reported_result: 0.06
- binder: "F1.105.11 human-murine chimeric antibody (antibody, human IgG1, kappa, V domains shown, Chimeric, human IgG1 / kappa; VL tied by name) VH: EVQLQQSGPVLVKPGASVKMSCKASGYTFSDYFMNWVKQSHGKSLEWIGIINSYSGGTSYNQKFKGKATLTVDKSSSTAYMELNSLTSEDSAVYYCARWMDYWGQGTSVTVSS VL: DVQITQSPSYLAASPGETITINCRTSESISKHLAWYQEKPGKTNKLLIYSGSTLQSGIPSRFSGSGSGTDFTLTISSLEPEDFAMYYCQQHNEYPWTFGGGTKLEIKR"
  parameter_measured: "OD450"
  reported_result: 0.05
- binder: "F1.192.1 human-murine chimeric antibody (antibody, human IgG1, kappa, V domains shown, Chimeric, human IgG1 / kappa) VH: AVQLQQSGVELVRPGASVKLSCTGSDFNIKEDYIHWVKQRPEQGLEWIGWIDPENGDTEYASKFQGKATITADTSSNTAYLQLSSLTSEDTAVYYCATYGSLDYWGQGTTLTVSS VL: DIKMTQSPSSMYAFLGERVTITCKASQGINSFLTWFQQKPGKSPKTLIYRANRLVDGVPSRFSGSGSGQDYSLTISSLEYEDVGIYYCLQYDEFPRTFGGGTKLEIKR"
  parameter_measured: "OD450"
  reported_result: 0.07
